testDetails: self-splicing fitness, log relative to wild type (ln ratio); higher = more splicing; Tetrahymena group I intron in knt gene, E. coli kanamycin selection, DiMSum; sequences stand for … in CUCUCU…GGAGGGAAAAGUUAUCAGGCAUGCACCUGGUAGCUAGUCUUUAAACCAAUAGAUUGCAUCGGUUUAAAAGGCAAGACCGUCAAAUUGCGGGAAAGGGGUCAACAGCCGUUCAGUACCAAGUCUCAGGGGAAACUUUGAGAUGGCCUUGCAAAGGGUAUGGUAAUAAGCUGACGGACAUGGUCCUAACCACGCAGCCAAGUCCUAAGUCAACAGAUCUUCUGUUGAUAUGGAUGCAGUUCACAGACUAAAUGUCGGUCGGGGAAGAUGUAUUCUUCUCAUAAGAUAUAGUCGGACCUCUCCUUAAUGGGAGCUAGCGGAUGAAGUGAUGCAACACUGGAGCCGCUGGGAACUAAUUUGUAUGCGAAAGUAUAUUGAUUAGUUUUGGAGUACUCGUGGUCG;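 also: selection with 25 µg/mL kanamycin versus none on LB agar overnight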
conditionNotes: 37 °C
Entry flag: t if self-splicing fitness (ln) reaches -0.8; f if it does not.

AAUAAGCAAUAUUACGUAUA; f
GUCUAGCAAUAUUACGGGUG; t
AGGAAGCAAUAUUACGCUGG; f
GCAUAGCAAUAUUACGGUUU; t
UGUCAGCAAUAUUACGGUAA; t

In: Given the entry "CUUCAGCAAUAUUACGGACA" , answer whether its self-splicing fitness (ln) meets or surpasses -0.8.
Out: f

In: Quick check: does "CUUCAGCAAUAUUACGGGGU" have self-splicing fitness (ln) greater than or equal to -0.8?
Out: f

* * *

testDetails: self-splicing fitness, log relative to wild type (ln ratio); higher = more splicing; Tetrahymena group I intron in knt gene, E. coli kanamycin selection, DiMSum; sequences stand for … in CUCUCU…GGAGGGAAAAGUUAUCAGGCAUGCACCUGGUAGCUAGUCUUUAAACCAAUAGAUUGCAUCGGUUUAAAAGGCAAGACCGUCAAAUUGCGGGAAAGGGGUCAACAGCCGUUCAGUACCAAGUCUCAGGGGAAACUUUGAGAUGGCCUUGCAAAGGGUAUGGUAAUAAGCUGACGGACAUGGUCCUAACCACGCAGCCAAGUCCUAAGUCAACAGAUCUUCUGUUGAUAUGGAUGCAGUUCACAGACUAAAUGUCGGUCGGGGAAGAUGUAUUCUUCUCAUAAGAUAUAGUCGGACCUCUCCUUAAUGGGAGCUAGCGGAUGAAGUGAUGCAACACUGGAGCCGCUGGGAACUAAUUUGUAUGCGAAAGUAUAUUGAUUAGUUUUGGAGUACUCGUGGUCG
conditionNotes: 37 °C
Measured self-splicing fitness (ln) values are reported for all entries that follow.
Would you mind answering with just the numeric figure?

Examples from the recorded data:
AAUGAGCAAUAUUACGAAUU; -2.3
UGUCAGCAAUAUUACGGUCC; -0.567
GCAAAGCAAUAUUACGGGGU; -2.5

In: Output self-splicing fitness (ln) of "GUGGAGCAAUAUUACGCAAA"
Out: -1.83

In: Could you please provide reported self-splicing fitness (ln) for "CCCUAGCAAUAUUACGGGCU" ? Thanks!
Out: -2.71

In: Query self-splicing fitness (ln) for "UCGCAGCAAUAUUACGUAUU"
Out: -1.85

In: Report self-splicing fitness (ln), nothing else, for this sequence: "GCUCAGCAAUAUUACGUGCA"
Out: -0.787

In: # return recorded self-splicing fitness (ln) for input "UUACAGCAAUAUUACGGUAC"
Out: -2.26

In: Tell me its self-splicing fitness (ln) given "ACGGAGCAAUAUUACGGAGA" as the entry.
Out: -2.01

In: Give me measured self-splicing fitness (ln), please, for this sequence: "CUCAAGCAAUAUUACGGGCA"
Out: -2.48

In: For the sequence "ACUAAGCAAUAUUACGCCUC" , give its reported self-splicing fitness (ln).
Out: -1.64

In: Give the reported self-splicing fitness (ln) for this sequence. "GACAAGCAAUAUUACGGUCG"
Out: -0.0208

In: Respond only with self-splicing fitness (ln) recorded for "ACAAAGCAAUAUUACGAAAA"
Out: -2.42

In: Identify self-splicing fitness (ln) associated with the sequence "GAAGAGCAAUAUUACGGUUA"
Out: -1.27

In: Item "GAUAAGCAAUAUUACGUAUG" : provide self-splicing fitness (ln)
Out: -1.37

In: State, in one line, measured self-splicing fitness (ln) of "GCCUAGCAAUAUUACGUAAG"
Out: -0.757
